- ASSAY COMMENT: Intraocular and retinal drug concentration in rats after eye drops (HPLC)
- Type: in vivo
- STUDY CONDITIONS: both sexes, SD, rat, vitreous body, topical, 10 μL of 2% solution per eye, twice a day for 7 days, 16 hours after administration, 2% eye drops twice a day, read-out: Content of test compound in Vitreous body
# concentration at 16 h after the second eye drop on Day 7 values compiled below
Reply with just the number (in ng/g).

1. CCOc1ccc(-c2c(F)cc(NC(=O)N3CCC(C(C)(C)C)CC3)cc2-c2nn[nH]n2)cn1	10100

Now look at this entry.
Q: What does the record list as concentration at 16 h after the second eye drop on Day 7 for `CCOc1ccc(-c2ccc(NC(=O)N[C@H]3CC[C@H](C)CC3)cc2-c2nn[nH]n2)cn1` ?
Result: 12700
